# credit: PubChem BioAssay (EPA / NIEHS)

assay-summary: BSK_SAg_SRB: Viability Assessment in the BioMAP Diversity Plus: SAg Assay (AID 2283096);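 note: cells read one day after compound addition; hits may be either gain or loss of signal compared with DMSO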
cond: primary human HUVEC with PBMC
Calls of active or inactive are those of the source. Rule for the calls: active = hit-call score of the fitted dose curve at least 0.9, where 1 is the maximum; inactive = score below 0.9.
measured-parameter: outcome

- C=CCCCCCCCCCCCC: inactive
- O=C(Oc1ccccc1)c1cccc(C(=O)Oc2ccccc2)c1: inactive
- CCCCOC(=O)CCCCC(=O)OCCCC: inactive

###

assay-summary: Tanguay_ZF_120hpf_OTIC_legacy: (Legacy) Oregon State University Tanguay Lab 120 Hour Post-fertilization zebrafish Assay for Otic Vesicle Malformation (AID 2283639)
Results filed as inconclusive are left out. Activity calls are given as the source filed them. Rule for the calls: active = hit-call score of the fitted dose curve at least 0.9, where 1 is the maximum; inconclusive = response in the unintended direction; inactive = score below 0.9.
Possible outcomes: 1 for active, 0 for inactive

• CN(C)C(=O)NC1(c2ccccc2)CCN(CC[C@@]2(c3ccc(F)c(F)c3)CN(C(=O)c3ccccc3)CCO2)CC1 = 0
• CCCCC(CC)CO (stereo unspecified) = 0
• CCCCC(CC)COP(=O)(OCC(CC)CCCC)OCC(CC)CCCC (stereo unspecified) = 0
• CC(C)COC(=O)CCCCC(=O)OCC(C)C = 0
• NC=O = 0
• CC1=C(C)S(=O)(=O)CCS1(=O)=O = 0
• Cc1ccc(C(C)(C)C)c(O)c1 = 0
• CCCCC(CC)COC(=O)CCCCCCCC(=O)OCC(CC)CCCC (stereo unspecified) = 0
• CCCCOC(=O)CCCCC(=O)OCCCC = 0
• O=C(O)c1cccnc1 = 0
• CC(=O)[C@@]1(O)CC[C@H]2[C@@H]3CCC4=CC(=O)CC[C@]4(C)[C@H]3CC[C@@]21C = 0
• CCC(C)N(C)C(=O)c1cc2ccccc2c(-c2ccccc2Cl)n1 (stereo unspecified) = 0
• CC(C)OC(=O)C(C)(C)Oc1ccc(C(=O)c2ccc(Cl)cc2)cc1 = 0
• O=C(N[C@@H](c1ccccc1)[C@@H]1CCCCN1)c1cccc(C(F)(F)F)c1Cl = 0
• Cc1occc(=O)c1O = 0
• Cc1cc(Cc2ccc(N)c(C)c2)ccc1N = 0
• CC(N)=O = 0
• O=C(Oc1ccccc1)c1cccc(C(=O)Oc2ccccc2)c1 = 0
• Nc1nc(Cl)nc2c1ncn2[C@H]1C[C@H](O)[C@@H](CO)O1 = 0
• CCCCCCCC(=O)OC = 0
• Oc1ccc(O)cc1 = 0
• CSc1ccc(Oc2ccc(S(N)(=O)=O)cc2CN(C)C)cc1C = 0
• C=CCCCCCCCCCCCC = 0
• NC(=Nc1ccccc1)Nc1ccccc1 = 0
• CC(=O)OCC(COC(C)=O)OC(C)=O = 0
• Cc1cc(SC2=C(O)C[C@@](CCc3ccc(N)cc3)(C(C)C)OC2=O)c(C(C)(C)C)cc1CO = 0
• CC(C)NCC(O)c1ccc(O)c(O)c1 (stereo unspecified) = 0
• CC1(C)C(=O)NC(=O)N1CO = 0
• CCCCCCCCCCCCCCOS(=O)(=O)O = 1
• CO[C@@H]1COCC[C@@H]1N[C@@H]1CC[C@@](C(=O)N2CCc3ncc(C(F)(F)F)cc3C2)(C(C)C)C1 = 0
• C=CCc1ccc(OC)c(OC)c1 = 0
• N[C@@H](Cc1c[nH]c2ccccc12)C(=O)O = 0
• CC(C)c1cccc(C(C)C)c1NC(=O)NS(=O)(=O)c1cc(C(C)(C)O)co1 = 0
• COC(=O)CCC(=O)OC = 0
• C/C=C/c1ccc(OC)cc1 = 0
• CCCCCCC(CCCCCCCCCCC(=O)OCC(COC(C)=O)OC(C)=O)OC(C)=O (stereo unspecified) = 0

###

assay-summary: CCTE_Shafer_MEA_acute_per_network_burst_spike_number_mean: CCTE's Neural Acute Assay for Average Number of Spikes in a Network Burst, Shafer Lab (AID 2284019);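 for AC50: curve fitted for loss of signal so actives reduce spikes per network burst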
The source made the active and inactive calls. Rule for the calls: active = hit-call score of the fitted dose curve at least 0.9, where 1 is the maximum; inactive = score below 0.9.
measured-parameter: AC50

• O=C(N[C@@H](c1ccccc1)[C@@H]1CCCCN1)c1cccc(C(F)(F)F)c1Cl = inactive
• COc1ccc(OC(F)(F)F)cc1CN[C@H]1CCCN[C@H]1c1ccccc1 = 2070 nM (active)
• CN(C)C(=O)NC1(c2ccccc2)CCN(CCC[C@]2(c3ccc(Cl)c(Cl)c3)CCCN(C(=O)c3ccccc3)C2)CC1 = inactive
• Cc1cc(SC2=C(O)C[C@@](CCc3ccc(N)cc3)(C(C)C)OC2=O)c(C(C)(C)C)cc1CO = inactive
• Cc1cc(Cc2ccc(N)c(C)c2)ccc1N = inactive

###

Read-out: Monokine induced gamma interferon (MIG), CXCL9 (gene 4283)
assay-summary: BSK_SAg_MIG: BioMAP Diversity Plus: SAg Assay for Monokine induced gamma interferon (MIG) Biomarker Activity (AID 2283092)
cond: primary human HUVEC with PBMC; actives raise or lower the signal
Calls of active or inactive are those of the source. The calls were made as follows: active = hit-call score of the fitted dose curve at least 0.9, where 1 is the maximum; inactive = score below 0.9.
Possible outcomes: true (active), false (inactive)

* OCC(O)CO | false
* CS(=O)(=O)c1ccc([C@@H](C[C@H]2CCC(=O)C2)C(=O)Nc2cnccn2)cc1Cl | false
* CC(C)NCC(O)c1ccc(O)c(O)c1 (stereo unspecified) | false
* CCC(C)N(C)C(=O)c1cc2ccccc2c(-c2ccccc2Cl)n1 (stereo unspecified) | false
* O=Cc1ccccc1C=O | false
* O=NO | false
* CC(C)c1cccc(C(C)C)c1 | false
* CN(C)C(=O)NC1(c2ccccc2)CCN(CCC[C@]2(c3ccc(Cl)c(Cl)c3)CCCN(C(=O)c3ccccc3)C2)CC1 | false
* CC(=O)O[C@]1(C(C)=O)CC[C@H]2[C@@H]3C=C(Cl)C4=CC(=O)[C@@H]5C[C@@H]5[C@]4(C)[C@H]3CC[C@@]21C | false
* S=c1[nH]c2ccccc2s1 | false
* CC(C)(C)c1ccccc1 | false
* CN(C)CCCN(C)CCCN(C)C | false
* CCCCC(CC)COC(=O)CCCCCCCC(=O)OCC(CC)CCCC (stereo unspecified) | false
* CC(=O)O | false
* O=C1NC(=O)C(c2ccccc2)(c2ccccc2)N1 | false
* O=C1OC(c2ccc(O)cc2)(c2ccc(O)cc2)c2ccccc21 | true

###

Read-out: CYP3A5 (gene 1577)
assay-summary: LTEA_HepaRG_CYP3A5: Life Technologies and Expression Analysis (LTEA) Assay for CYP3A5 using HepaRG (AID 2283493)
cond: mRNA level, 48 h; actives raise or lower the signal
Protocol: LTEA_HepaRG is a cell based, multiplexed-readout assay that uses HepaRG, a human liver cell line, with measurements taken at 48 hours after chemical dosing on a 96-well plate.LTEA_HepaRG_CYP3A5 is one of 102 assay component(s) measured in the LTEA HepaRG cell culture assay. It is a marker of NR mediated metabolism.Data from the assay component LTEA_HepaRG_CYP3A5 was analyzed into 1 endpoint. […]
Calls of active or inactive are those of the source. Rule for the calls: active = hit-call score of the fitted dose curve at least 0.9, where 1 is the maximum; inactive = score below 0.9.
Possible outcomes: TRUE for active, FALSE for inactive

• CC(COCC(C)OC(=O)c1ccccc1)OC(=O)c1ccccc1 (stereo not drawn) = FALSE
• CCN(CC)CCOc1ccc(C(=C(Cl)c2ccccc2)c2ccccc2)cc1 = FALSE
• NC(=Nc1ccccc1)Nc1ccccc1 = FALSE
• OCC(O)CO = FALSE
• CCCCc1nc2cccnc2n1Cc1ccc(-c2ccccc2-c2nnn[nH]2)cc1 = FALSE
• O=C1NC(=O)C(c2ccccc2)(c2ccccc2)N1 = FALSE
• CC(C)COC(=O)CCCCC(=O)OCC(C)C = FALSE
• O=C(NS(=O)(=O)/C=C/c1cccs1)c1ccc(F)cc1Br = FALSE
• CCOCCOCCO = FALSE
• Cc1cc(Cc2ccc(N)c(C)c2)ccc1N = FALSE
• Cc1c(C)c2c(c(C)c1O)CCC(C)(COc1ccc(CC3SC(=O)NC3=O)cc1)O2 (stereo not drawn) = TRUE
• Cc1occc(=O)c1O = FALSE
• CCCCCCCCCCCCCCCCO = FALSE

###

Read-out: Human Leukocyte Antigen - DR isotype (HLADR), HLA-DRA (gene 3122)
assay-summary: BSK_BE3C_HLADR: BioMAP Diversity Plus: BE3C Assay for Human Leukocyte Antigen - DR isotype (HLADR) Biomarker Activity (AID 2283032)
cond: primary human bronchial epithelial cells; actives raise or lower the signal
Active and inactive are the calls of the source. How the source made its calls: active means hit-call score of the fitted dose curve at least 0.9, where 1 is the maximum; inactive means score below 0.9.
measured-parameter: outcome

• CCOCCOCCO = inactive
• O=C(O)c1cccnc1 = inactive
• Nc1nc(Cl)nc2c1ncn2[C@H]1C[C@H](O)[C@@H](CO)O1 = inactive
• NC1CCCCC1 = inactive
• Cc1cc(Cc2ccc(N)c(C)c2)ccc1N = inactive
• CC(=O)CC(c1ccccc1)c1c(O)c2ccccc2oc1=O (configuration not stated) = inactive
• CN(C)C(=O)NC1(c2ccccc2)CCN(CC[C@@]2(c3ccc(F)c(F)c3)CN(C(=O)c3ccccc3)CCO2)CC1 = inactive
• O=C(NS(=O)(=O)/C=C/c1cccs1)c1ccc(F)cc1Br = inactive
• O=C1NC(=O)C(c2ccccc2)(c2ccccc2)N1 = inactive
• CCCCCCCCCC[N+](C)(C)[O-] = inactive
• CS(=O)(=O)c1ccc([C@@H](C[C@H]2CCC(=O)C2)C(=O)Nc2cnccn2)cc1Cl = inactive
• Oc1ccccc1O = inactive
• O=C1c2c(O)cccc2Cc2cccc(O)c21 = inactive
• CN(C)CCCN(C)CCCN(C)C = inactive
• CO[C@@H]1COCC[C@@H]1N[C@@H]1CC[C@@](C(=O)N2CCc3ncc(C(F)(F)F)cc3C2)(C(C)C)C1 = inactive
• Cc1cc(SC2=C(O)C[C@@](CCc3ccc(N)cc3)(C(C)C)OC2=O)c(C(C)(C)C)cc1CO = inactive
• CC(C)(C)c1ccccc1 = inactive
• CCCCc1nc2cccnc2n1Cc1ccc(-c2ccccc2-c2nnn[nH]2)cc1 = inactive
• NCCOCCOCCN = inactive
• OCC(CO)n1cnc(-c2ccc(F)cc2)c1-c1ccnc(Oc2ccccc2)n1 = inactive
• CCCC(=O)O = inactive
• CC(N)=O = inactive
